TEST_TARGET: Ubiquitin thioesterase OTUB1 (Homo sapiens)
EXPERIMENT_NOTES: Inhibition of N-terminal His-6 tagged OTUB1 (40 to 271 residues) (unknown origin) expressed in Escherichia coli BL21 (DE3) cells at 10 nM using Ub-Rho measured after 0.5 to 3 hrs by fluorescence based Plate reader method relative to control
CONDITION_NOTES: time 0.5-3 hrs, values are per cent of control
MEASURE: residual activity (%)

COc1ccc(F)c(-c2nc3c(o2)C(=O)c2ccccc2C3=O)c1Cl
23.3
O=C1c2ccccc2C(=O)c2oc(-c3cccc(F)c3)nc21
55.3
O=C1c2ccccc2C(=O)c2oc(-c3c(F)cccc3F)nc21
56.2
O=C1c2ccccc2C(=O)c2oc(-c3cccc(Cl)c3)nc21
60.4

A: Cc1cccc(-c2nc3c(o2)C(=O)c2ccccc2C3=O)c1
B: O=C1c2ccccc2C(=O)c2oc(-c3ccc([N+](=O)[O-])cc3)nc21
Input line: Field: entry with larger residual activity (options A / B ). Field: selected label. Fill in the label of the entry you choose.
Output line: A

====

TEST_TARGET: Ubiquitin thioesterase OTUB1 (Homo sapiens)
EXPERIMENT_NOTES: Inhibition of N-terminal His-6 tagged OTUB1 (40 to 271 residues) (unknown origin) expressed in Escherichia coli BL21 (DE3) cells at 100 nM using Ub-Rho measured after 0.5 to 3 hrs by fluorescence based Plate reader method relative to control
CONDITION_NOTES: time 0.5-3 hrs, values are per cent of control
MEASURE: residual activity (%)

Example entries begin here.
O=C1c2ccccc2C(=O)c2oc(-c3cc(Cl)ccc3Cl)nc21
25.2
COc1cc(-c2nc3c(o2)C(=O)c2ccccc2C3=O)ccc1C(F)(F)F
46.4
CN1CC[C@@H](Oc2cccc(-c3nc4c(o3)C(=O)c3ccccc3C4=O)c2)C1
34
CN1CCN(CCOc2cc(-c3nc4c(o3)C(=O)c3ccccc3C4=O)ccc2Cl)CC1
38.2
CN1CC[C@@H](Oc2ccc(Cl)c(-c3nc4c(o3)C(=O)c3ccccc3C4=O)c2F)C1
7.4
COc1cc(Cl)cc(-c2nc3c(o2)C(=O)c2ccccc2C3=O)c1
40.7

I: O=C1c2ccccc2C(=O)c2oc(-c3ccccc3Cl)nc21
II: O=C1c2ccccc2C(=O)c2oc(-c3c(F)ccc(F)c3Cl)nc21
Input line: Field: entry with larger residual activity (options I / II ). Field: selected label. Fill in the label of the entry you choose.
Output line: I
(I: 25.1%, II: 10.4%)

1: O=C1c2ccccc2C(=O)c2oc(-c3c(F)cccc3F)nc21
2: COc1ccc(-c2nc3c(o2)C(=O)c2ccccc2C3=O)c(C(F)(F)F)c1
Input line: Field: entry with larger residual activity (options 1 / 2 ). Field: selected label. Fill in the label of the entry you choose.
Output line: 2
(2: 41.7%, 1: 24%)

====

TEST_TARGET: Ubiquitin carboxyl-terminal hydrolase 2 (Homo sapiens, UniProt O75604)
Sequence (O75604 whole entry): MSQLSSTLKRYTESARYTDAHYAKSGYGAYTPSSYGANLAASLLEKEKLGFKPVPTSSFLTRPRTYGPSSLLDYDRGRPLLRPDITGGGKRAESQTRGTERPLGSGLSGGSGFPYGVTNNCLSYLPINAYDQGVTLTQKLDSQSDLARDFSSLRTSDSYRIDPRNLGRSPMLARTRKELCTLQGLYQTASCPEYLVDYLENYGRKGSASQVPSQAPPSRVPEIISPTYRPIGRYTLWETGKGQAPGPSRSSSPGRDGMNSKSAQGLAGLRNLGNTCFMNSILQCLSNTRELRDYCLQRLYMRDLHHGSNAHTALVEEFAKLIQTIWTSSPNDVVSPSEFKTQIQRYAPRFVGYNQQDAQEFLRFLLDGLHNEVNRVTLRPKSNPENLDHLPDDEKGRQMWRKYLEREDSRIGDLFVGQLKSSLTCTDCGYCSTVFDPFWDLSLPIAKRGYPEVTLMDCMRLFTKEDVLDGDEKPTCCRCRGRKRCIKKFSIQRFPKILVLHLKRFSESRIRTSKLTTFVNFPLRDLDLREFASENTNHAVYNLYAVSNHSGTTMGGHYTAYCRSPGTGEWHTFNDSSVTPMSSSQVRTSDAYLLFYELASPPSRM
MEASURE: IC50 (µM)

CN1CC[C@@H](Oc2ccc(Cl)c(-c3nc4c(o3)C(=O)c3ccccc3C4=O)c2)C1
6.2
CN1CC[C@@H](Oc2ccc(F)c(-c3nc4c(o3)C(=O)c3ccccc3C4=O)c2Cl)C1
3.8
O=C1c2ccccc2C(=O)c2oc(-c3cccnc3)nc21
5.1

====

TEST_TARGET: Ubiquitin carboxyl-terminal hydrolase 8 (Homo sapiens) (UniProt P40818)
Sequence (P40818 whole entry, the tested form may be a part): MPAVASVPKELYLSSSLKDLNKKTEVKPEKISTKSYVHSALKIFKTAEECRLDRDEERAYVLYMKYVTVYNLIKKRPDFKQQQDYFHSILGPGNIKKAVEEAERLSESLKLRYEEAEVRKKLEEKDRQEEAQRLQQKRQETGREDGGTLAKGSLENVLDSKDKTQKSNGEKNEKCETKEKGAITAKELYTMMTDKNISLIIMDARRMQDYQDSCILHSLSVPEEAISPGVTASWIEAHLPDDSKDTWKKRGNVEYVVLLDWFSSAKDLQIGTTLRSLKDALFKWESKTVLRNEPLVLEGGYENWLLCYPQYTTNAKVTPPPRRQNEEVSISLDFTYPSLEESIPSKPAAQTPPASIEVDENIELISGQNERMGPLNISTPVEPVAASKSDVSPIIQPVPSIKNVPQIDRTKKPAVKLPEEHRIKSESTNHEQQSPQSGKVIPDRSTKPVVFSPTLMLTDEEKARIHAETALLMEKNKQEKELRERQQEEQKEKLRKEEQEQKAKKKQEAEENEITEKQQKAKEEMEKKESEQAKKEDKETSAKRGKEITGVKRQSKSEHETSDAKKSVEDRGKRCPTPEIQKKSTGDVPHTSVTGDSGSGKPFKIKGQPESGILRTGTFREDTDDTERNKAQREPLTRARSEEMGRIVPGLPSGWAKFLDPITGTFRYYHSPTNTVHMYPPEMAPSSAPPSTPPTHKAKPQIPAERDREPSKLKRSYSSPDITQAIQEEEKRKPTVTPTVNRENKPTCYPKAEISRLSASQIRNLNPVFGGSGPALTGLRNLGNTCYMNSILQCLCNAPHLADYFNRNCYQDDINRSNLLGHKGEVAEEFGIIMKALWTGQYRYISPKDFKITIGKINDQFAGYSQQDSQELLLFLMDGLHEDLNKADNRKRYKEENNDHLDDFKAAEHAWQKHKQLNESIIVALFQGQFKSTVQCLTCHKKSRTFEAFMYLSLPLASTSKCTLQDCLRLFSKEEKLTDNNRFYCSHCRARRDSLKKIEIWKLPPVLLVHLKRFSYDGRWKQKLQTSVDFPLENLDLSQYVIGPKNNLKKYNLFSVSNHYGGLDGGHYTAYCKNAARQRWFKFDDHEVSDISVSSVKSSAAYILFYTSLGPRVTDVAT
EXPERIMENT_NOTES: Inhibition of N-terminal His-6 tagged USP8 (734 to 1110 residues) (unknown origin) expressed in Escherichia coli BL21 (DE3) cells at 10 nM measured after 3 hrs by fluorescence based Plate reader method relative to control
CONDITION_NOTES: values are per cent of control
MEASURE: residual activity (%)

Example entries begin here.
O=C1c2ccccc2C(=O)c2oc(-c3ccccc3[N+](=O)[O-])nc21
51.1
CN1CC[C@@H](Oc2cccc(-c3nc4c(o3)C(=O)c3ccccc3C4=O)c2)C1
68.3
COc1cc(-c2nc3c(o2)C(=O)c2ccccc2C3=O)ccc1C
57.9

P: CN(C)CCOc1cccc(-c2nc3c(o2)C(=O)c2ccccc2C3=O)c1
Q: O=C1c2ccccc2C(=O)c2oc(-c3ccc(F)cc3F)nc21
Input line: Pick one, P or Q : lowest reported residual activity. Field: selected label. Fill in the label of the entry you choose.
Output line: Q
(Q: 34.7%, P: 60.4%)

====

TEST_TARGET: Ubiquitin carboxyl-terminal hydrolase 1 (Homo sapiens, UniProt O94782)
Sequence (O94782 whole entry): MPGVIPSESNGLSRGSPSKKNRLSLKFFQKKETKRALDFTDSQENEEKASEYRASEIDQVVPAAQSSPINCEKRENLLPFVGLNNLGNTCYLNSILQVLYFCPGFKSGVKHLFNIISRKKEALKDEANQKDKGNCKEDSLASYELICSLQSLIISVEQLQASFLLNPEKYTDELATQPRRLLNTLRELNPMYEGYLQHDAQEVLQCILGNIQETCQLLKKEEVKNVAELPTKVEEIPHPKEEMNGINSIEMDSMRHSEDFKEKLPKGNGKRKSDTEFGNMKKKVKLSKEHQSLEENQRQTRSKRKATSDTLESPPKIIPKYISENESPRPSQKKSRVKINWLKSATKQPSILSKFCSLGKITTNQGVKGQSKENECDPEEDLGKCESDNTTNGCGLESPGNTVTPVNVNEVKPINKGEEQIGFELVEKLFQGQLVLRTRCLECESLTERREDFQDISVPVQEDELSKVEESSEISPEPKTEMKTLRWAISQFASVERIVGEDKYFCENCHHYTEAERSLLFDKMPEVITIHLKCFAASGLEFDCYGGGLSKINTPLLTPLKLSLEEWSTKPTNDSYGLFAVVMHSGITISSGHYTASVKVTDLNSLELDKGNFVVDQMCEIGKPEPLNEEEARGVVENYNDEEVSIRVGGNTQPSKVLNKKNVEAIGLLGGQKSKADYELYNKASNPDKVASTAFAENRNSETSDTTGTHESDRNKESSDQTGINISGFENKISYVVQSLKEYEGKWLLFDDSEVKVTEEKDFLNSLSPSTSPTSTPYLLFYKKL
pIC50: −log10 of the molar value.
MEASURE: pIC50

CN1CC[C@@H](Oc2ccc(F)c(-c3nc4c(o3)C(=O)c3ccccc3C4=O)c2Cl)C1
5.86

1: CN1CC[C@@H](Oc2ccc(Cl)c(-c3nc4c(o3)C(=O)c3ccccc3C4=O)c2F)C1
2: O=C1c2ccccc2C(=O)c2oc(-c3cccnc3)nc21
Input line: Pick one, 1 or 2 : lowest reported pIC50. Field: selected label. Fill in the label of the entry you choose.
Output line: 1

====

TEST_TARGET: Ubiquitin thioesterase OTUB1 (Homo sapiens, UniProt Q96FW1)
Sequence (Q96FW1 whole entry, the tested form may be a part): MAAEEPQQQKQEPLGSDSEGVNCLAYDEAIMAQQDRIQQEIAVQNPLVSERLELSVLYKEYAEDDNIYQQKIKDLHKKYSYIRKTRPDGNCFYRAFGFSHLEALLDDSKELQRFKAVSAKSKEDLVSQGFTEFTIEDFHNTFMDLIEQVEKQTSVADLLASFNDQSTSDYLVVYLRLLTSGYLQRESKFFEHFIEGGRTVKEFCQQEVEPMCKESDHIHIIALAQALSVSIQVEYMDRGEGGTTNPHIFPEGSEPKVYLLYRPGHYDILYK
EXPERIMENT_NOTES: Inhibition of N-terminal His-6 tagged OTUB1 (40 to 271 residues) (unknown origin) expressed in Escherichia coli BL21 (DE3) cells at 10 nM using Ub-Rho measured after 0.5 to 3 hrs by fluorescence based Plate reader method relative to control
CONDITION_NOTES: time 0.5-3 hrs, values are per cent of control
MEASURE: residual activity (%)

CN(C)CCOc1cccc(-c2nc3c([nH]2)C(=O)c2ccccc2C3=O)c1
86.5
COc1cc(O[C@@H]2CCN(C)C2)cc(-c2nc3c(o2)C(=O)c2ccccc2C3=O)c1
77.1
O=C1c2ccccc2C(=O)c2oc(-c3c(F)cccc3Cl)nc21
37.3

1: CN1CC[C@@H](Oc2ccc(-c3nc4c(o3)C(=O)c3ccccc3C4=O)c(C(F)(F)F)c2)C1
2: CN1CC[C@@H](Oc2ccc(Cl)c(-c3nc4c(o3)C(=O)c3ccccc3C4=O)c2)C1
3: O=C1c2ccccc2C(=O)c2oc(-c3cccc([N+](=O)[O-])c3)nc21
4: CN1CC[C@@H](Oc2ccc(F)c(-c3nc4c(o3)C(=O)c3ccccc3C4=O)c2Cl)C1
Input line: # desc sort on residual activity across 4 compounds A complete answer lists every label in the requested sequence.
Output line: 1, 3, 2, 4
(1: 74.7%, 3: 47.8%, 2: 28.9%, 4: 10.5%)
